Experiment: Solubility in gastric juice or intestinal juice model fluid (precipitation method using DMSO)
Type: physicochemical
Settings: pH 6.8, kinetic from dmso stock, 2nd fluid for Disintegration Test of Japanese Pharmacopoeia (pH: 6.8), room temperature, read-out: Solubility (μg/mL) 2nd fluid
Description: Solubility in Gastric Juice or Intestinal Juice Model Fluid Measurement was performed by a precipitation method using DMSO. […] Subsequently, insoluble substances in each mixture were removed by filtration, and the UV absorption of each filtrate was measured. […]
property_measured: solubility at 24 h (µg/mL)

Before answering, review these 2 worked examples.
1) Oc1ccc(-c2cnc(-c3ccc(F)nc3)[nH]2)c(Cl)c1 [Example 359]	52.8
2) COc1cc(O[C@H](C)c2ccc(C(F)(F)F)cc2)ccc1-c1cnc(-c2ccc(F)nc2)[nH]1 [Example 148]	5.3

I: COc1cc(OCc2ccc(C(F)(F)F)nc2)ccc1-c1c(C)nc(-c2ccc(F)nc2)n1C [Example 161]
II: COc1cc(-c2c[nH]c(C3CC3)n2)ccc1OCc1ccc(C(F)(F)F)cn1 [Example 82]
Ask: Which record shows the lower solubility at 24 h: the first, I , or the second, II ? State the label of the item chosen.
Result: I
(I: 3.9 µg/mL, II: 41.1 µg/mL)

----------
property_measured: melting point

1) COc1cc(OCc2ccc(C(F)(F)F)cn2)ccc1-c1c[nH]c(-c2ccc(N3CCCC3)nc2)n1	227 to 231 °C (dec.)

melting point reported for this compound Cc1cc(OCc2ncc(C(F)(F)F)cc2F)ccc1-c1cnc(-c2ccc(F)nc2)[nH]1 : 216 to 222 °C

What the record says about COc1cc(OCc2ncc(F)cc2F)ccc1-c1cnc(-c2ccc(F)nc2)[nH]1 : melting point is 188 to 191 °C

Consider COc1cc(OCc2ccc(C(F)(F)F)nc2)ccc1-c1[nH]c(C2CCC(F)(F)CC2)nc1Cl . Its measured melting point is 122 to 125 °C

----------
Assay: Solubility in gastric juice or intestinal juice model fluid (precipitation method using DMSO)
Assay type: physicochemical
Conditions: pH 6.8, kinetic from dmso stock, 2nd fluid for Disintegration Test of Japanese Pharmacopoeia (pH: 6.8), room temperature, read-out: Solubility (μg/mL) 2nd fluid
property_measured: solubility at 24 h (µg/mL)

Examples with their reported solubility at 24 h follow.
1. COc1cc(OCc2ccc(C(F)(F)F)cn2)ccc1-c1cnc(C2CC(F)(F)C2)[nH]1	1.8
2. COc1cc(OCc2ccc(C(F)(F)F)nc2)ccc1-c1cnc(C2CCC(F)(F)CC2)[nH]1	3
3. COc1cc(OCc2cc(C(F)(F)F)ccn2)ccc1-c1cnc(-c2ccc(F)nc2)[nH]1	2.7
4. COc1cc(OCc2ccc(C(F)(F)F)cn2)ccc1-c1c[nH]c(-c2ccc(O)nc2)n1	3.7
5. COc1cc(-c2[nH]c(C3CC(F)(F)C3)nc2Br)ccc1OCc1ccc(C(F)(F)F)nc1	1.7
6. COc1cc(OCc2ncc(C(F)(F)F)cc2F)ccc1-c1cnc(C2CCC(F)(F)C2)[nH]1 (stereo not shown)	8.1
7. COc1cc(OCc2ccc(C(F)(F)F)nc2)ccc1-c1[nH]c(-c2ccc(F)nc2)nc1C(F)(F)F	1.5
8. COc1cc(OCc2ccc(C(F)(F)F)nc2)c(C)cc1-c1[nH]c(C2CCC(F)(F)CC2)nc1Cl	0.6
9. COc1cc(OCc2ncc(C(F)(F)F)cc2F)ccc1-c1[nH]c(C2CCC(F)(F)CC2)nc1Cl	0.4
10. COc1cc(OCc2ccc(C(F)(F)F)cn2)ccc1-c1c(Cl)nc(-c2ccc(Cl)nc2)n1CC1CC1	1.1

a: COc1cc(OCc2ncc(C(F)(F)F)cc2F)ccc1-c1[nH]c(C2CC(F)(F)C2)nc1Br
b: COc1cc(-c2c[nH]c(C34CC5CC(CC(C5)C3)C4)n2)ccc1OCc1ccc(C(F)(F)F)cn1
c: COc1cc(-c2[nH]c(C3CC(F)(F)C3)nc2Cl)ccc1OCc1ncc(C(F)(F)F)cc1F
d: COc1cc(-c2[nH]c(C3CC(F)(F)C3)nc2Cl)ccc1OCc1ccc(C(F)(F)F)cn1
Ask: Your job: order these 4 records by solubility at 24 h, ascending. Rank them, then answer with their labels in that order.
Result: b, a, c, d
